These entries and their values trace back to patent US6361773B1.

# TGT: CSAID binding protein (CSBP) in THP.1 cytosol (Homo sapiens)
# Construct: endogenous in cells; host or cells: THP.1 (ATCC TIB 202), cytosolic fraction (100,000 x g supernatant)
# Sequence (Q16539 whole entry): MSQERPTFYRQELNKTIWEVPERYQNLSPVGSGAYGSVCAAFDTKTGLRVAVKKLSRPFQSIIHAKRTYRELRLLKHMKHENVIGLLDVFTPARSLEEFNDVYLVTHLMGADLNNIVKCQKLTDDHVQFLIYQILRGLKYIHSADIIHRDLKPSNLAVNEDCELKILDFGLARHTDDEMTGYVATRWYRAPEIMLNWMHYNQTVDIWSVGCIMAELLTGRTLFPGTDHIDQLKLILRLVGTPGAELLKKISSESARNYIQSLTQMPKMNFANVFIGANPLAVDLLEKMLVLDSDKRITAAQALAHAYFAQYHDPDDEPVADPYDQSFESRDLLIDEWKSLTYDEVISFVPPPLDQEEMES
# PROTOCOL: CSAID binding assay with 3H-Compound I and THP.1 cytosol
# STATED CONDITIONS: read-out: IC50 in a competitive binding assay
pIC50: −log10 of the molar value.
MEASUREMENT TYPE: pIC50

- [N-]=[N+]=Nc1ccc(-c2nc(-c3cccc([125I])c3)c(-c3ccncc3)[nH]2)cc1 [Compound IV]: 6.10 to 6.30

* * *

# System: IL-1 production in human monocytes
# PROTOCOL: CSAIDs bioassay (IL-1 dependent EL-4/IL2 induction assay, LPS-stimulated human monocytes)
# Format: cell-based
# STATED CONDITIONS: Monocyte, read-out: IC50 in the bioassay
MEASUREMENT TYPE: IC50 (nM)

- N#Cc1ccc(-c2nc(-c3ccc(F)cc3)c(-c3ccnc4ccccc34)n2O)cc1: 20
